This listing pairs compounds with measured MIC.
System: Klebsiella pneumoniae
Test: Antibacterial activity against Klebsiella pneumoniae ATCC 10031
Type: functional
Field: numeric (µg/mL). Do not append units.

Example compounds with recorded MIC:
>  <compound>
CNCC1=CC[C@H](N)[C@H](O[C@H]2[C@H](O[C@@H]3O[C@H](CO)[C@@H](O[C@@H]4O[C@H](CN)[C@H](O)[C@@H](O)[C@@H]4N)[C@H]3O)[C@@H](O)[C@H](N)C[C@@H]2N)O1

>  <MIC, µg/mL>
2

$$$$
>  <compound>
NCC[C@H](O)C(=O)N[C@@H]1C[C@H](N)[C@@H](O[C@H]2O[C@H](CN)[C@@H](O)[C@H](O)[C@H]2O)[C@H](O)[C@H]1O[C@H]1O[C@H](CO)[C@@H](O)[C@H](N)[C@H]1O [AMIKACIN]

>  <MIC, µg/mL>
0.5

$$$$
>  <compound>
NCC1=CC[C@H](N)[C@H](O[C@H]2[C@H](O[C@@H]3O[C@H](CO)[C@@H](O[C@@H]4O[C@H](CN)[C@H](O)[C@@H](O)[C@@H]4N)[C@H]3O)[C@@H](O)[C@H](N)C[C@@H]2N)O1 (stereo in doubt)

>  <MIC, µg/mL>
0.5

$$$$

-- ask // fetch MIC given entry CN[C@@H]1[C@@H](O)[C@@H](O[C@@H]2[C@@H](O)[C@H](O[C@H]3OC(CN)=CC[C@H]3N)[C@@H](N)C[C@H]2N)OC[C@]1(C)O [SISOMICIN]
-- reply 0.25

-- ask // fetch MIC given entry CN[C@@H](C)[C@@H]1CC[C@@H](N)[C@@H](O[C@H]2[C@H](O)[C@@H](O[C@H]3OC[C@](C)(O)[C@H](NC)[C@H]3O)[C@H](N)C[C@@H]2N)O1
-- reply 0.25

* * *

This listing pairs compounds with measured MIC.
System: Escherichia coli
Assay: Antibacterial activity against Escherichia coli expressing A-site methyltransferase ArmA
Format: functional

Example compounds with recorded MIC:
>  <compound>
CN[C@@H](C)[C@@H]1CC[C@@H](N)[C@@H](O[C@H]2[C@H](O)[C@@H](O[C@H]3OC[C@](C)(O)[C@H](NC)[C@H]3O)[C@H](N)C[C@@H]2N)O1

>  <experimentalReadout>
MIC

>  <endpointResult>
> 64 µg/mL

$$$$
>  <compound>
NCC1=CC[C@H](N)[C@H](O[C@H]2[C@H](O[C@@H]3O[C@H](CO)[C@@H](O[C@@H]4O[C@H](CN)[C@H](O)[C@@H](O)[C@@H]4N)[C@H]3O)[C@@H](O)[C@H](N)C[C@@H]2N)O1 (stereo in doubt)

>  <experimentalReadout>
MIC

>  <endpointResult>
2 µg/mL

$$$$
>  <compound>
NCC[C@H](O)C(=O)N[C@@H]1C[C@H](N)[C@@H](O[C@H]2O[C@H](CO)[C@@H](O)[C@H](O)[C@H]2N)[C@H](O[C@@H]2O[C@H](CO)[C@@H](O[C@H]3O[C@@H](CN)[C@@H](O)[C@H](O)[C@H]3N)[C@H]2O)[C@H]1O

>  <experimentalReadout>
MIC

>  <endpointResult>
4 µg/mL

$$$$
>  <compound>
N[C@@H]1CC=C(CO)O[C@@H]1O[C@H]1[C@H](O[C@@H]2O[C@H](CO)[C@@H](O)[C@H]2O)[C@@H](O)[C@H](N)C[C@@H]1N

>  <experimentalReadout>
MIC

>  <endpointResult>
> 64 µg/mL

$$$$
>  <compound>
NCC1O[C@H](O[C@H]2[C@@H](O)[C@H](O[C@H]3[C@H](O)[C@@H](N)C[C@@H](N)[C@@H]3O[C@H]3O[C@H](CN)[C@@H](O)[C@H](O)[C@H]3N)O[C@@H]2CO)[C@H](N)[C@@H](O)[C@@H]1O (some centres undefined)

>  <experimentalReadout>
MIC

>  <endpointResult>
1 µg/mL

$$$$

-- ask // fetch MIC given entry NCC[C@H](O)C(=O)N[C@@H]1C[C@H](N)[C@@H](O[C@H]2OC(CN)=CC[C@H]2N)[C@H](O[C@@H]2O[C@H](CO)[C@@H](O)[C@H]2O)[C@H]1O
-- reply 8 µg/mL
